Values were extracted from PubChem BioAssay (NCATS).

- Tested on: Zika virus NS2B-NS3 protease (unlinked complex)
- run-description: Primary screen GU Rhodamine qHTS for Zika virus inhibitors: Unlinked NS2B-NS3 protease assay (AID 1347159); further: nearly all actives have a fitted effect of over 60% in size
- stated-conditions: Recombinant ZIKV NS2B-NS3 protease, Rhodamine110 substrate fluorescence; series mostly up to 107 µM
Inconclusive results are not listed. Active and inactive are the calls of the source. The call rests on the fitted dose curve; in most records, active means well fitted inhibition curve with a large enough effect; inconclusive means small, poorly fitted or top-dose-only effect; inactive means no such curve, though single readings can be large or run the other way.
Outcome codes: active, inactive

{"columns": ["molecule", "category"],
 "data": [
  ["CN1CCc2nc(C(=O)N[C@@H]3C[C@@H](C(=O)N(C)C)CC[C@@H]3NC(=O)C(=O)Nc3ccc(Cl)cn3)sc2C1", "inactive"],
  ["CC1(O)CCCC2(C)C1CCC13CC(CO)C(CCC12)C3 (stereo not drawn)", "inactive"],
  ["CC1(C(=O)O)CCCC2(C)C3CCC4CC3(CCC12)CC4=O (stereo not drawn)", "inactive"],
  ["Cc1cc(C)cc(C(=O)NOCCCCCC(=O)NO)c1", "inactive"],
  ["COC1=CC(=O)CC(C)C12Oc1cc(OC)cc(O)c1C2=O (stereo not drawn)", "inactive"],
  ["C=CC[C@]12C[C@@H](OC)C(=O)C(OC)=C1O[C@@H](c1cc(OC)c3c(c1)OCO3)[C@@H]2C", "inactive"],
  ["CSc1ccc(C(=O)N[C@@H]2CCCC[C@@H]2NC(=O)CNC(=O)c2cc(C(F)(F)F)ccc2NC(=O)NC(C)C)cc1", "inactive"],
  ["O=C(CC1C(=O)Nc2ccccc21)OC[C@H]1O[C@@H](OCCc2ccc(O)cc2)[C@H](O)[C@@H](O)[C@@H]1O (stereo partly drawn)", "inactive"],
  ["Cc1ccc([N+](=O)[O-])cc1S(=O)(=O)N(C)/N=C/c1cnc2ccc(Br)cn12", "inactive"],
  ["Cc1cnc(NC(=O)Nc2cc(Br)c(C)cc2OCC2CNCCO2)cn1 (stereo not drawn)", "inactive"],
  ["O=C1CC2(CCCC2)[C@H](O)C(=O)N1CCCCN1CCN(c2ncccn2)CC1", "inactive"],
  ["COc1cc2c(cc1OC)CC(=O)N(CCCNC[C@H]1Cc3cc(OC)c(OC)cc31)CC2", "inactive"],
  ["OC[C@H]1O[C@@H](Oc2cc(O)c3c(c2)O[C@@H](c2ccc(O)cc2)[C@H](O)C3)[C@H](O)[C@@H](O)[C@@H]1O", "inactive"],
  ["CC(C)=CCC/C(C)=C/Cc1ccc(O)c(C2OC(=O)c3cc(C(=O)O)cc(O)c32)c1O (stereo not drawn)", "active"],
  ["CC/C=C\\[C@H](O)[C@H](O)C1=C(C)C(=O)[C@]2(O1)C(=O)N[C@@](OC)(C(=O)c1ccccc1)[C@@H]2O", "inactive"],
  ["Cc1nc(C)c(-c2ccc(C3CCC(CC(=O)O)CC3)cc2)nc1C(N)=O (stereo not drawn)", "inactive"],
  ["O=C(O)Cc1cn(C2OCC(O)C(O)C2O[C@@H]2O[C@H](CO)[C@@H](O)[C@H](O)[C@H]2O)c2ccccc12 (stereo partly drawn)", "inactive"],
  ["NC1CCC(Nc2cc(-c3cccc(NCc4cccc(F)c4)n3)c(Cl)cn2)CC1 (stereo not drawn)", "inactive"]
]}
